Data origin, for the record: PubChem BioAssay AID1508600

// values below are reported z-score
# Test Details: Components of the Cytosolic LPS Sensing Pathway: Gene Identification via Genome-wide siRNA Screen;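 further: robust z of the log signal after scaling to non-targeting control siRNA wells of the plate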
# Condition Info: RAW264.7 macrophages, IL-1a HTRF, actives lie on both sides, screened at 100 nM (by protocol), cells primed 5 h with Pam3CSK4 first
The whole screen tested about 53,000 sequences, of which about 3,700 (7%) were called active. The sample as a whole holds a higher share of actives than the screen did.
Quantity Name: z-score

1) GGCUGGCUAUAAGAAAAAATT against Mrpl35 | -0.646
2) CCAGACAGAAGGGUUAGCUTT against Mrps36 | -2.03
3) GCCCUUAAAACAUAACCACTT against Fgf9 | 0.615
4) GGAGAACCAGAUCCUGAUCTT against Mypop | 0.511
5) GGCUGUUGAACUUAAUCCCTT against Tomm70a | -2.25
6) CCGAAGCAUUUUCCCAUCUTT against Slc22a20 | -0.293
7) CGAACUUGUACAGAAGAAUTT against Slfn3 | -0.311
8) GGUUAUAGCAUCCUUAACUTT against Tmem208 | 1.06
9) CCCGAAUUGACAACAUCGUTT against Olfr855 | 0.566
10) CCACGAUAUUCCAGGUCUGTT against AF067063 | -1.54
11) GGCAAUCAGCAUACCAACUTT against Thbs2 | -1.87
12) GGAGAGCAGAUGUGAUUCUTT against Mrm2 | -0.561
13) GCCACCAGUGAAUAAUACATT against Hyal6 | 0.459
14) GGCUAAAGGCCUUCUUUUUTT against Reep3 | 0.622
15) GCAGUUGUCAUGCUAAACCTT against Ptpn2 | 2.89
16) CCAAAGAUACCAUUUUGCATT against Lypd8 | 0.599
17) GGAAUUGCACUUUUCCAAUTT against Phlda1 | 0.481
18) GGAACUUAUAUCUGCGCCATT against Gprin3 | 0.868
19) GGUUUAGGCAACUAAGUUGTT against Stat5a | 0.426
20) GGACGAGGACCAGCUAGAATT against Txn2 | -2.07
21) GGAACUGGGAGACCUAUAATT against Angptl2 | -2.01
22) GCAAUGUGCACGAUGAUGATT against Pik3cg | -0.79
23) GGUUUUGAGUGAGAAAUGGTT against Plekhb2 | -0.414
24) GGAACAGGUGAUCCGCUACTT against Lzts2 | 1.26
25) GCAACAAGUCUGGAGACAATT against Pebp1 | -0.595
26) GCCCUUAGCUGCAUGAAUUTT against Laptm4b | -0.661
27) CGGCCUACAACUACCCAACTT against Tekt3 | 1.02
28) GUUCCGACUGAACUUGUAUTT against Psmb3 | -2.55
29) AAUAGACUGGUACUCUCUGTT against Olfr476 | 1.08
30) GGUCACGUCAGCAAAGCAATT against B930095G15Rik | -2.73
31) GGAGGCCUUGUACUUACACTT against Rspo1 | 1.26
32) GCCUCUUCAAUCACAUUUATT against Atp6v0a4 | 3.27
33) GGUGUACCUCUGAAAAAAATT against Zbp1 | -1.5
34) GCUCUAGAAAGUUACAGAUTT against Crtam | 0.317
35) CCACCUUGUUGAGUGGCACTT against Smarcd3 | -0.177
36) GGUCCUGUUAAACUGAAAGTT against Fkbp1a | -1.45
37) GGCAUCACACAGGAGAAAATT against Ppp1r16b | -0.391
38) CCAUUCGAUACCUCGUGCATT against Dhps | -0.249
39) GGACAAUGUGGUGCUGUCCTT against Slc34a3 | 0.492
40) GGACCAUCAGAGGAGAACUTT against Cuedc2 | -2.09
41) GGUUCUUCCCACAGAAGACTT against Pggt1b | 0.176
42) GGUUAAGUGUGUUAAGUUCTT against Cipc | 1.48
43) GCUGCAUCUAAAGCCUUAATT against Olfr661 | 1.41
44) GGCCCAGGAUAUUUUAGUUTT against Atg9b | -0.553
45) GGAGAUGCGAGUACAACUGTT against Ermn | 0.479
46) GGCUUACAAUGUGAUUUACTT against Cd7 | 1.92
47) GGCAGUAAGAACUACUAAATT against Ric1 | 2.65
48) GGUCAACAGUUACAUCGAGTT against Vps33a | 0.273
49) GGGACUUAAGGUUAGACACTT against E330018D03Rik | 0.163
50) GGUUAACGGAUCAACAUUUTT against Ube2d2a | 1.71

----------
# Test Details: Components of the Cytosolic LPS Sensing Pathway: Gene Identification via Genome-wide siRNA Screen;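 further: robust z of the log signal after scaling to non-targeting control siRNA wells of the plate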
# Condition Info: RAW264.7 macrophages, IL-1a HTRF, actives lie on both sides, screened at 100 nM (by protocol), cells primed 5 h with Pam3CSK4 first
The campaign covered roughly 53,000 sequences. About 3,700 (7%) were called active. The sample as a whole holds a higher share of actives than the screen did.
Binary classification by z-score, with 0.5 as an inclusive lower bound for satisfied; all other cases are not satisfied.

1) GGAGGAGAACAGCAAUCUUTT against Speer4d | not satisfied
2) GGAAAAACAUGCCAAAAAATT against Mettl15 | not satisfied
3) GCGAGAAUUCUCUUCCAAUTT against Gsx2 | satisfied
4) GGAGUUUUGGGUGAUGAUATT against Olfr974 | not satisfied
5) CCGUAAGAAGGAAAACGCATT against Kcnd1 | not satisfied
6) GGAUCAAGAAUUAAUGUCUTT against Nes | not satisfied
7) UAGGAGAUAUCUGCUACCGTT against Fbxw16 | not satisfied
8) GGACAAAGUAUUUGUGACCTT against Cd3d | not satisfied
9) GGUAUGAGUACAAAUACUGTT against Tek | satisfied
10) GGCACAGACCUCACAGUUATT against Olfr64 | satisfied
11) CCACACACUGAUCAACGUGTT against Unc93b1 | not satisfied
12) GGUACGUGAGAGAAUUCUGTT against Trem2 | satisfied
13) CGAGGAGAAUUUGUAAUGATT against Etfrf1 | not satisfied
14) GCUUGAGUAGUGCAGAAACTT against Jmjd1c | not satisfied
15) CCAUAUAUUAUGGACCUUATT against Hepacam2 | not satisfied
16) CCAACGCGAACGAGAACUATT against C1qb | not satisfied
17) GGGUUCAUUUCUCAAAAUUTT against Nol7 | not satisfied
18) GGUGCUGAUUGACCUAACATT against Wdtc1 | not satisfied
19) GGAAAAUGUUUUACCAAUGTT against Rspry1 | not satisfied
20) GGGUGACCUAAAGAAUUAATT against Ybx3 | satisfied
21) GGCUUGAUGAAGAGAAUAUTT against Oog4 | not satisfied
22) UUGAACAGUGGAACAAUGATT against Fbxo27 | satisfied
23) GGUGUCUUUGCUCAGCUCATT against Lrfn4 | not satisfied
24) GGAUGGGAAGGUGAUUGUCTT against Gnb5 | satisfied
25) GAAAAGAAUUCCAGAAGAUTT against Sec61g | satisfied
26) GCCCACAGUCAUUAAACUATT against Nipal4 | satisfied
27) GGCCUUCACUGGUUAAAAUTT against Ankrd6 | not satisfied
28) GGAUCUUAAGUCCUAACAUTT against Tacc3 | not satisfied
29) GCAUCCUGAGUCCGUAUCCTT against Rbm11 | satisfied
30) GGAAAUAAUGUUACUGACATT against Zfp445 | not satisfied
31) GCAUGUUGUCGACACAUGCTT against Bcl6 | satisfied
32) GGACAAAGCAAUCCACAUCTT against Wdr55 | not satisfied
33) GGAGACACAUAGGUGUAAATT against H2-T23 | not satisfied
34) GGAUGCACUCAAGAAUUACTT against Ccdc65 | satisfied
35) GCCACAUGGUUAAUAAGAGTT against Postn | not satisfied
36) GGUAUCAAAACAACAGUCCTT against Upk1b | not satisfied
37) GCCUGUCCUGUGAUGACAUTT against Olfr406 | not satisfied
38) GGCUCUAACUAUUAUGUGCTT against Psmc4 | not satisfied
39) GGCAUGUAGGGUUUUGUUUTT against 9830163H01Rik | not satisfied
40) GGAAAGAAGAAAUGAGAAGTT against Gm9871 | not satisfied
41) CGAAGGUCAAACAGUUUGATT against Stxbp6 | not satisfied
42) GGUCAGGUUGAGGACAUAATT against Vwa1 | satisfied
43) GGAAACCUGAUUAUCAUCATT against Olfr791 | not satisfied
44) GGACCUUGGCCUUACACAATT against Astn2 | satisfied
45) CGAGUGUUCCUCCAAGUGCTT against Fhl5 | not satisfied
46) GGAAUAGGGAGGUAACCAGTT against Olfr1394 | not satisfied
47) GCUAAAAGGUAAGUACUUCTT against Lncpint | satisfied
48) GGUUAAAAACAACUGAAAGTT against 9630028B13Rik | not satisfied
49) GGUCUUAGAUAAUGUUAGATT against Gpr26 | satisfied
50) GGGAAAGUCGAGCUUUUUCTT against Ifi44l | not satisfied
